molecular target: Kinesin-like protein KIF11 (Homo sapiens); assay: In vitro inhibitory concentration towards kinesin spindle protein activity of ATP hydrolysis in the presence of microtubules measured by ATPase assay (n=3)
Listed below: IC50 values for each entry.
Could you give me the number in µM? Just the number is fine.

Worked cases, answers included:
Reported IC50 ( CC(=O)N1N=C(c2ccccc2Br)CC1c1ccccc1 (configuration not stated) ) = 23.3

response.value for CC(=S)N1N=C(c2cc(F)ccc2F)CC1c1ccccc1 (configuration not stated) (field: IC50) = 0.25

Per the records, this compound ( CC(=O)N1N=C(c2ccccc2F)CC1c1ccccc1 (configuration not stated) ) has IC50 equal to 3.6

GET /value?item= CNC(=O)N1N=C(c2cc(F)ccc2F)CC1c1ccccc1 (configuration not stated) &field=IC50 returns 3.1

Given item CC(C)(C)C(=O)N1N=C(c2ccccc2Cl)CC1c1cccc(O)c1 (configuration not stated) , the value recorded as its IC50 is 0.46

Continuing:
In plain terms, CC(=O)N1N=C(c2ccccc2Cl)CC1c1ccccc1 (configuration not stated) has a documented IC50 of 3.6

---

molecular target: Caspase-3 (Homo sapiens, UniProt P42574); assay: Inhibitory concentration towards caspase-3 induction in human A2780 ovarian carcinoma cells
Sequence (P42574 29-175 limits assumed): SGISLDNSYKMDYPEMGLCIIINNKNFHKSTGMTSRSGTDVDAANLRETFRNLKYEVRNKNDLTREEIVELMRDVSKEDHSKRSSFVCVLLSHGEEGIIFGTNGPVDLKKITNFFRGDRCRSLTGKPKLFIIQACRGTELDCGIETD
Sequence (P42574 176-277 limits assumed): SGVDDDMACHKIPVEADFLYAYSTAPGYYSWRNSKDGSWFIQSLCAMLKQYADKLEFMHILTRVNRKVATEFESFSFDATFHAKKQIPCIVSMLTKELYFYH
Quantity: IC50 (nM)
Only the number, expressed in nM, is required.

Entry CC(=O)N1N=C(c2cc(F)ccc2F)C[C@H]1c1cccc(O)c1 , IC50 reported as 15

---

target: Kinesin-like protein KIF11 (Homo sapiens, UniProt P52732); experiment: In vitro inhibitory concentration towards kinesin spindle protein activity of ATP hydrolysis in the presence of microtubules measured by ATPase assay (n=3)
Quantity: pIC50
pIC50 is defined as minus the log10 of a concentration measured in mol/L.

Below, 4 compounds whose answers are already recorded.
Reported pIC50 (Kinesin-like protein KIF11 (Homo sapiens, UniProt P52732)) for entry CC(=O)N1N=C(c2ccc(Cl)cc2Cl)CC1c1ccccc1 (configuration not stated) is 4.42

// compound CC(=O)N1N=C(c2cc(F)ccc2F)CC1c1cccc(O)c1 (configuration not stated) , assay Kinesin-like protein KIF11 (Homo sapiens, UniProt P52732), pIC50 value: 7.29

The compound CC(=O)N1N=C(c2ccccc2Cl)CC1c1cccc(O)c1 (configuration not stated) , when measured on Kinesin-like protein KIF11 (Homo sapiens, UniProt P52732), yielded pIC50 of 6.35

Entry CC(=O)N1N=C(c2cccc(F)c2F)CC1c1ccccc1 (configuration not stated) : pIC50 on Kinesin-like protein KIF11 (Homo sapiens, UniProt P52732) = 4.90

---
The compound CC(=O)N1N=C(c2cc(F)ccc2F)CC1c1cccs1 (configuration not stated) , when measured on Kinesin-like protein KIF11 (Homo sapiens, UniProt P52732), yielded pIC50 of 5.74

Entry CC(=O)N1N=C(c2cccc(Cl)c2)CC1c1ccccc1 (configuration not stated) , tested on Kinesin-like protein KIF11 (Homo sapiens, UniProt P52732), has a reported pIC50 of 5.01

---

# reported pIC50; entries follow
Target: Kinesin-like protein KIF11 (Homo sapiens)
Sequence (P52732 whole entry): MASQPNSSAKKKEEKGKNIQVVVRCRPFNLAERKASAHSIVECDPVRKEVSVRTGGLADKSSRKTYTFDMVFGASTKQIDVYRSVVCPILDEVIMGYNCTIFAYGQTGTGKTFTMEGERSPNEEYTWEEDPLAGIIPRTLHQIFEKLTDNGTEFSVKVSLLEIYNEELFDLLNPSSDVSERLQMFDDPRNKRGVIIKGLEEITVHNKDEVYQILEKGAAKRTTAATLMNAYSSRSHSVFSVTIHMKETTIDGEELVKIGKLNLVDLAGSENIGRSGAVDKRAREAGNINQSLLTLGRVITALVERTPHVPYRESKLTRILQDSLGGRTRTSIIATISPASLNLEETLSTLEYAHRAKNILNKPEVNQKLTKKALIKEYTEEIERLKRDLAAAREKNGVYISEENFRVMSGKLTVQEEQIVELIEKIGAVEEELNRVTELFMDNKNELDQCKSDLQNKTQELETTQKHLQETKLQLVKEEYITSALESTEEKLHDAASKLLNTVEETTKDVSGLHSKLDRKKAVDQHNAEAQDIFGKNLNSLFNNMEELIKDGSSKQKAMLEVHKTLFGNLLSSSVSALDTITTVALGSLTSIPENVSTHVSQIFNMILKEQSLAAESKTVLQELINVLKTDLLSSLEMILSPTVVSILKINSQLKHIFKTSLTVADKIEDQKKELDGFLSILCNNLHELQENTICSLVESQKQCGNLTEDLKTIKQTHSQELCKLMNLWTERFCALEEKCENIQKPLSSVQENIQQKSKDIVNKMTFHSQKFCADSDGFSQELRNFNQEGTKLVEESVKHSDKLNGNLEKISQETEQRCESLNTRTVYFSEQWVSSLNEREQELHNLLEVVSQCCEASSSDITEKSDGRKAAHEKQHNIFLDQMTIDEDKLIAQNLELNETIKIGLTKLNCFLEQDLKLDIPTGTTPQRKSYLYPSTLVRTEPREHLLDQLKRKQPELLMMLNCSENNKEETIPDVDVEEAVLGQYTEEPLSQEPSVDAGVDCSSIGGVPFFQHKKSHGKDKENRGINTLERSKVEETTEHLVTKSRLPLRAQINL
Test: In vitro inhibitory concentration towards kinesin spindle protein activity of ATP hydrolysis in the presence of microtubules measured by ATPase assay (n=3)
pIC50: −log10 of the molar value.

Worked set:
For reference, reported pIC50 for CC(=O)N1N=C(c2ccc(Cl)cc2)CC1c1ccccc1 (stereo unspecified) stands at < 4.30

Query CC(=O)N1N=C(c2ccccc2)CC1c1ccccc1 (stereo unspecified) yields pIC50 of < 4.30

The reported pIC50 of the compound CC(=O)N1N=C(c2cc(F)cc(F)c2)CC1c1ccccc1 (stereo unspecified) was < 5.30

pIC50 reported for this compound CN1N=C(c2ccccc2Cl)CC1c1cccc(O)c1 (stereo unspecified) : < 4.30

For record COC(=O)N1N=C(c2ccccc2Cl)CC1c1cccc(O)c1 (stereo unspecified) the listed pIC50 is < 4.30

Kindly review the next compound as well.
Record COc1ccccc1C1=NN(C(C)=O)C(c2ccccc2)C1 (stereo unspecified) . Reported pIC50: < 4.30
